Attribution: patent US20240400614A1

Molecular target: Kallikrein-3 (Homo sapiens, UniProt P07288)
Sequence (P07288 25-261, species assumed): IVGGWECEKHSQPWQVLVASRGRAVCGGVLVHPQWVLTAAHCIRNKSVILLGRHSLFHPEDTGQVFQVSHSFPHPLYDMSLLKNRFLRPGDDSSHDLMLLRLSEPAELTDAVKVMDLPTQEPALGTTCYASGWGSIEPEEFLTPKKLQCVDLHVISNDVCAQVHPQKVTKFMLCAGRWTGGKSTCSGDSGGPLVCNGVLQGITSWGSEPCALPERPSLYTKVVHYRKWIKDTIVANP
Assay: FRET peptide cleavage efficiency with Kallikrein-3
Assay type: biochemical
Details: t = 6 h; peptide 200 uM, Kallikrein-3 2 μg/ml, 37° C., pH 8
Square brackets hold non-standard residues; d marks the D form. Ends that are not written are not given here. Tyr(3-NO2) = N[C@@H](Cc1ccc(O)c([N+](=O)[O-])c1)C(=O)O; 2Abz = Nc1ccccc1C(=O)O
Field: class. Source value: Kallikrein-3 t = 6 h % cleavage. Ranges: lower range (below 40%), middle range (40% to below 90%), upper range (90% or more)

SSLQSSPG ([2Abz]SSLQSSPG[Tyr(3-NO2)]-NH2) [LNK066] = middle range

(Q) Into which category would you place RSSYRSL ([2Abz]RSSYRSL[Tyr(3-NO2)]-NH2) [LNK075] ?
(A) upper range

(Q) Another: GSSVYSGR ([2Abz]GSSVYSGR[Tyr(3-NO2)]-NH2) [LNK080]
(A) middle range

(Q) Moving on to the next substance: GSSYYSGA ([2Abz]GSSYYSGA[Tyr(3-NO2)]-NH2) [LNK079]
(A) upper range

(Q) Try the substance KLYSSKQ ([2Abz]KLYSSKQ[Tyr(3-NO2)]-NH2) [LNK071]
(A) middle range

(Q) Input RRLNYSL ([2Abz]RRLNYSL[Tyr(3-NO2)]-NH2) [LNK074]
(A) middle range

(Q) Next: RSSYYSL ([2Abz]RSSYYSL[Tyr(3-NO2)]-NH2) [LNK076]
(A) lower range

(Q) Similarly, ISQYSSAT ([2Abz]ISQYSSAT[Tyr(3-NO2)]-NH2) [LNK070] ?
(A) lower range

(Q) Here is the next substance: SGRHSSKLQPLGYFGKL ([2Abz]SGRHSSKLQPLGYFGKL[Tyr(3-NO2)]-NH2) [LNK063]
(A) lower range

###

Biological target: MMP-7 (Homo sapiens)
Construct: purchased SIGMA CC1059
Sequence (P09237 95-267): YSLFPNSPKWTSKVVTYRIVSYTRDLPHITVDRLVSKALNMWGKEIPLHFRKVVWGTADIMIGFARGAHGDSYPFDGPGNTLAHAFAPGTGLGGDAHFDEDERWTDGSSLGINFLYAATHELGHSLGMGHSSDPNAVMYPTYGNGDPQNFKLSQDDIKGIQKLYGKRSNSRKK
Experiment: FRET peptide cleavage efficiency with MMP-7 (standard pH 7.5; also pH 6.5)
Format: biochemical
Details: t = 120 min (Table 9)
Square brackets hold non-standard residues; d marks the D form. Ends that are not written are not given here. Tyr(3-NO2) = N[C@@H](Cc1ccc(O)c([N+](=O)[O-])c1)C(=O)O; Nle = CCCC[C@H](N)C(=O)O; 2Abz = Nc1ccccc1C(=O)O
readout.label: % cleavage MMP-7 t = 120 min (%)
Value expressed in %; do not type the unit.

RGRKSPYMLQG ([2Abz]RGRKSPYMLQG[Tyr(3-NO2)]-NH2) [LNK037] = 88
RGRKSPY-Nle-LQG ([2Abz]RGRKSPY[Nle]LQG[Tyr(3-NO2)]-NH2) [LNK038] = 92
RGRRSGRAANLVRPLGYFGKL ([2Abz]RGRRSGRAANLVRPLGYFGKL[Tyr(3-NO2)]-NH2) [LNK059] = 0

(Q) Form field: % cleavage MMP-7 t = 120 min recorded for SGRVAPY-Nle-LQG ([2Abz]SGRVAPY[Nle]LQG[Tyr(3-NO2)]-NH2) [LNK043] with MMP-7 (Homo sapiens) (enter value)
(A) 100

(Q) Check RGRKVANLVG ([2Abz]RGRKVANLVG[Tyr(3-NO2)]-NH2) [LNK031] too.
(A) 93

(Q) Now consider RGRKPY-Nle-LQG ([2Abz]RGRKPY[Nle]LQG[Tyr(3-NO2)]-NH2) [LNK036] .
(A) 100

(Q) Try this substance too: RGRRPLGYFGKL ([2Abz]RGRRPLGYFGKL[Tyr(3-NO2)]-NH2) [LNK057]
(A) 0

(Q) Same lookup for RGRRHSSKLQPLGYFGKL ([2Abz]RGRRHSSKLQPLGYFGKL[Tyr(3-NO2)]-NH2) [LNK062] , please.
(A) 0

###

Target: MMP-2 (Homo sapiens, UniProt P08253)
Construct: purchased SIGMA PF023
Sequence (P08253 110-660): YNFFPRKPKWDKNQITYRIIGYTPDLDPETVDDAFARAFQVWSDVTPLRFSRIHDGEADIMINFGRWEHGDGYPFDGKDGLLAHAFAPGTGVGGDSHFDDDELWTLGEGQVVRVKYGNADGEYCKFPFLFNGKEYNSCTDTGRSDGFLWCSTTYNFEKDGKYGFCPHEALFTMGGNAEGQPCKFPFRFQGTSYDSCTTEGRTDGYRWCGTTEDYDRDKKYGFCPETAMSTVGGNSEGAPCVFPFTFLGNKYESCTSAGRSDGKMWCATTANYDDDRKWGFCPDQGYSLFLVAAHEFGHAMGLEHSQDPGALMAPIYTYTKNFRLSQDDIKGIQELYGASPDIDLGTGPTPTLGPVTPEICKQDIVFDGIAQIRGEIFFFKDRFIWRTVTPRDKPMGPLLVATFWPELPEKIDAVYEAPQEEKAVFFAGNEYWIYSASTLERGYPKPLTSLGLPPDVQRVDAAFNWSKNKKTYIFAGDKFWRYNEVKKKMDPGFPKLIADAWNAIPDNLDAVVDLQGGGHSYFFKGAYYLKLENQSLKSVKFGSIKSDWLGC
Assay: FRET peptide cleavage efficiency with MMP-2
Assay type: biochemical
Conditions: t = 60 min (Table 9)
Square brackets hold non-standard residues; d marks the D form. Ends that are not written are not given here. Tyr(3-NO2) = N[C@@H](Cc1ccc(O)c([N+](=O)[O-])c1)C(=O)O; Nle = CCCC[C@H](N)C(=O)O; 2Abz = Nc1ccccc1C(=O)O
readout.label: % cleavage MMP-2 t = 60 min (%)
Give a bare numeral; the unit % is implied.

Examples with their reported % cleavage MMP-2 t = 60 min follow.
RGRKPY-Nle-LQG ([2Abz]RGRKPY[Nle]LQG[Tyr(3-NO2)]-NH2) [LNK036] = 70
RGRKSPANLVG ([2Abz]RGRKSPANLVG[Tyr(3-NO2)]-NH2) [LNK034] = 100
RGRRPLGLAG ([2Abz]RGRRPLGLAG[Tyr(3-NO2)]-NH2) [LNK049] = 100
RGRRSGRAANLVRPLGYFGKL ([2Abz]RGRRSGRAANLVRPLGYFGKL[Tyr(3-NO2)]-NH2) [LNK059] = 100

(Q) Entry RGRRVANLVG ([2Abz]RGRRVANLVG[Tyr(3-NO2)]-NH2) [LNK033] : reported % cleavage MMP-2 t = 60 min = ?
(A) 100

###

Entries and their % cleavage MMP-2 t = 60 min
Target: MMP-2 (Homo sapiens)
Construct: purchased SIGMA PF023
Sequence (P08253 110-660): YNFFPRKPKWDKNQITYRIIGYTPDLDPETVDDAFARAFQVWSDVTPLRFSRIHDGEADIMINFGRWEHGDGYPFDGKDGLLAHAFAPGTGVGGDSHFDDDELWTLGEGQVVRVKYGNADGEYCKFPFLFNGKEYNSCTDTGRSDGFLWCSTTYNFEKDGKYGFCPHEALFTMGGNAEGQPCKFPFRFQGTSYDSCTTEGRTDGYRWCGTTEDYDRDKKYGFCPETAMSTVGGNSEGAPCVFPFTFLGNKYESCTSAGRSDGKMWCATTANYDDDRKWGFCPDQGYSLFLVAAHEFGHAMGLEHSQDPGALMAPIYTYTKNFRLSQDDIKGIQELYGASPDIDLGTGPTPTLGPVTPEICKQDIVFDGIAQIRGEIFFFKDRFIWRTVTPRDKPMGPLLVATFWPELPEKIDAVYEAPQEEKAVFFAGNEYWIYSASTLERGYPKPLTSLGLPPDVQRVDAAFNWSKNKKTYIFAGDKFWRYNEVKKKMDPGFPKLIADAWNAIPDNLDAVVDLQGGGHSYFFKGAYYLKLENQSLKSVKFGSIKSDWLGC
Test: FRET peptide cleavage efficiency with MMP-2
Assay type: biochemical
Conditions: t = 60 min; 200 uM linker, 1 ug/ml protease, 37° C., buffer C pH 7.5
Square brackets hold non-standard residues; d marks the D form. Ends that are not written are not given here. Tyr(3-NO2) = N[C@@H](Cc1ccc(O)c([N+](=O)[O-])c1)C(=O)O; 2Abz = Nc1ccccc1C(=O)O
Write it as a number; the unit % goes unstated.

Worked cases, % cleavage MMP-2 t = 60 min given:
SPLGLAGS ([2Abz]SPLGLAGS[Tyr(3-NO2)]-NH2) [LNK030] = 100
RGRRPLGYFGKL ([2Abz]RGRRPLGYFGKL[Tyr(3-NO2)]-NH2) [LNK057] = 100
SGRVLTLRKAGPANLVG ([2Abz]SGRVLTLRKAGPANLVG[Tyr(3-NO2)]-NH2) [LNK012] = 97
RSSYYSL ([2Abz]RSSYYSL[Tyr(3-NO2)]-NH2) [LNK076] = 69
RQRRSPLGLAG ([2Abz]RQRRSPLGLAG[Tyr(3-NO2)]-NH2) [LNK010] = 99

(Q) Missing value: % cleavage MMP-2 t = 60 min, MMP-2 (Homo sapiens), entry RGRRVANPLGLAGSG ([2Abz]RGRRVANPLGLAGSG[Tyr(3-NO2)]-NH2) [LNK050] . Fill in?
(A) 100

(Q) Entry to check: RRLHYSL ([2Abz]RRLHYSL[Tyr(3-NO2)]-NH2) [LNK073]
(A) 4

(Q) // same read-out, input: ISQYSSAT ([2Abz]ISQYSSAT[Tyr(3-NO2)]-NH2) [LNK070]
(A) 0

(Q) Item: SSRGPYMLQG ([2Abz]SSRGPYMLQG[Tyr(3-NO2)]-NH2) [LNK022]
(A) 81
